- System: Ba/F3-CDM cells (Ba/F3 transfected with CD8-MerTK)
- TEST_METHOD_NOTES: In cell MER kinase assay, Ba/F3-CDM cell proliferation without IL-3 (Celltiter-Glo, GI50)
- Assay type: cell-based, murine
- TEST_SETTINGS: 48 hours, read-out: Cell growth inhibition (GI50)
ATTRIBUTE_MEASURED: GI50

As a guide, the following entries are already answered.
| COMPOUND | GI50 |
| --- | --- |
| CCc1cc(CO[C@H]2CNC[C@@H]2NC(=O)c2cc(-c3cccnc3)cnc2N)ccc1C | > 1000 nM |
| CC(c1ccc(-c2ccc(CO[C@H]3CCC[C@@H]3NC(=O)c3cc(-c4ccc(F)nc4)cnc3N)cc2)cc1)N1CCN(CCO)CC1 (stereo partly drawn) | < 100 nM |
| C[C@@H]1CN(Cc2ccc(-c3ccc(CO[C@H]4CCC[C@@H]4NC(=O)c4cc(-c5cnn(C)c5)cnc4N)cc3)cc2)C[C@H](C)N1C | < 100 nM |
| C[C@@H]1CN(Cc2ccc(-c3ccc(CO[C@H]4CCC[C@@H]4NC(=O)c4cc(-c5cnn(C)c5)cnc4N)cc3)cc2)C[C@H](C)N1 | 100 to 500 nM |
| COc1ccc(-c2cnc(N)c(C(=O)N[C@H]3CCC[C@@H]3OCc3ccc(-c4ccc(CN5CCN(C)CC5)cc4)cc3)c2)cc1OC | < 100 nM |

Lab note: next compound to report on.
Entry "Cn1cc(-c2cnc(N)c(C(=O)N[C@H]3COC[C@@H]3OCc3ccc(-c4ccc(CN5CCN(CCO)CC5)c(C(F)(F)F)c4)cc3)c2)cn1" needs its GI50 filled in; supply it.
< 100 nM
